Numbers sourced from patent US20210155689A1.

Biological target: T1, human LAG-3 protein with hFc tag (hLAG-3-hFc protein) (human, UniProt P18627 23-450)
T1 construct: also called immunogen 1; LAG-3 extracellular domain protein; not shown: human IgG Fc fragment (hFc) of the pCpC vector
T1 sequence: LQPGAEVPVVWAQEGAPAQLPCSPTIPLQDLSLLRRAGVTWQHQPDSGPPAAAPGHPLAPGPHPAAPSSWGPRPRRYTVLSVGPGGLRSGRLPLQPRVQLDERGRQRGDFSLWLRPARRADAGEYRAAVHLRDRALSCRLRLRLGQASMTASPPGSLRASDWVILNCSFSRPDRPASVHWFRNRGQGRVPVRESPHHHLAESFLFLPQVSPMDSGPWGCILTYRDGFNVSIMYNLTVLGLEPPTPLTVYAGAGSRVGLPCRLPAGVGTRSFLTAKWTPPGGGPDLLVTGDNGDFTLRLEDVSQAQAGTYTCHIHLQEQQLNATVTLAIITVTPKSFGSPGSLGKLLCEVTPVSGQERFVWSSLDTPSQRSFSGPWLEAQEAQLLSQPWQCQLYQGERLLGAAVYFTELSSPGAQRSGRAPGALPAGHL
Assay: ELISA, hLAG-3-hFc coated; 6.6667 nM
recorded_metric: OD450 (OD450)
One number for each entry, in OD450.

Query: # get_value(readout='OD450', item= 409D4E10 (LAG-3 mouse-human chimeric antibody) (antibody, V domains shown) VH: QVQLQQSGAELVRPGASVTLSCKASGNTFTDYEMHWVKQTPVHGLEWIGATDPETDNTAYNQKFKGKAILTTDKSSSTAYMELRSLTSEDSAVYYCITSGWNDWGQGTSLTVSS VL: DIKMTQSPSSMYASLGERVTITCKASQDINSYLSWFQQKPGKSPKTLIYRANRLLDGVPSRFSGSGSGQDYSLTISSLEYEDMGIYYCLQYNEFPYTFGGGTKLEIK )
Reply: 3.73
